Observed MIC values for Pr. mirabilis A9900 are listed in what follows.
Give bare numbers, in µg/mL.

{"compound": "CC(=O)Oc1ccc([C@@H](N)C(=O)N[C@@H]2C(=O)N3C(C(=O)O)=C(C)CS[C@H]23)cc1", "readoutUnits": "µg/mL", "MIC": 8}
{"compound": "CC(=O)Oc1ccc([C@@H](N)C(=O)N[C@@H]2C(=O)N3C(C(=O)O)=C(CSc4c[nH]nn4)CS[C@H]23)cc1", "readoutUnits": "µg/mL", "MIC": 0.5}
{"compound": "CC1=C(C(=O)O)N2C(=O)[C@@H](NC(=O)[C@H](N)c3ccc(O)cc3)[C@H]2SC1 [BL-S 578-4, reference compound]", "readoutUnits": "µg/mL", "MIC": 8}

Next:
Quick one: give measured MIC for N[C@@H](C(=O)N[C@@H]1C(=O)N2C(C(=O)O)=C(CSc3c[nH]nn3)CS[C@H]12)c1ccc(O)cc1 [Bl-S640, reference compound]
0.5

====

System: Ent. cloacae A9657
assayRemarks: MIC, 2-fold broth dilution, Ent. cloacae A9657
Type: cell-based
protocolConditions: Enterobacter cloacae, Nutrient Broth, 10-4
Field: MIC. Provide a value for each of the molecules that follow.
State the result as a value with its unit after it.

{"molecule": "CC(=O)Oc1ccc([C@@H](N)C(=O)N[C@@H]2C(=O)N3C(C(=O)O)=C(C)CS[C@H]23)cc1 [RN 1394]", "MIC": "8 µg/mL"}

Batch lookup, MIC per entry.
1. CC(=O)Oc1ccc([C@@H](N)C(=O)N[C@@H]2C(=O)N3C(C(=O)O)=C(CSc4c[nH]nn4)CS[C@H]23)cc1 [RN 1396]
2. N[C@@H](C(=O)N[C@@H]1C(=O)N2C(C(=O)O)=C(CSc3c[nH]nn3)CS[C@H]12)c1ccc(O)cc1 [Bl-S640, reference compound]

1: 1 µg/mL; 2: 0.5 µg/mL

Quick one: give measured MIC for CC1=C(C(=O)O)N2C(=O)[C@@H](NC(=O)[C@H](N)c3ccc(O)cc3)[C@H]2SC1 [BL-S 578-4, reference compound]
16 µg/mL

====

Tested on: S. aureus BX1633 A9606
assayRemarks: MIC, 2-fold broth dilution, S. aureus BX1633 A9606
Assay type: cell-based
protocolConditions: Staphylococcus aureus, BX1633A9606, Nutrient Broth; 10-2
Field: MIC. Provide a value for each of the compounds that follow.

Some solved cases for reference:
{"compound": "N[C@@H](C(=O)N[C@@H]1C(=O)N2C(C(=O)O)=C(CSc3c[nH]nn3)CS[C@H]12)c1ccc(O)cc1 [Bl-S640, reference compound]", "MIC": "1 µg/mL"}
{"compound": "CC(=O)Oc1ccc([C@@H](N)C(=O)N[C@@H]2C(=O)N3C(C(=O)O)=C(CSc4c[nH]nn4)CS[C@H]23)cc1", "MIC": "4 µg/mL"}

Batch lookup, MIC per entry.
1. CC1=C(C(=O)O)N2C(=O)[C@@H](NC(=O)[C@H](N)c3ccc(O)cc3)[C@H]2SC1 [BL-S 578-4, reference compound]
2. CC(=O)Oc1ccc([C@@H](N)C(=O)N[C@@H]2C(=O)N3C(C(=O)O)=C(C)CS[C@H]23)cc1

1. 2 µg/mL
2. 2 µg/mL
